# protocol.notes: ATG_Ets_CIS: Attagene CIS-FACTORIAL HepG2 Assay for human Erythroblast Transformation Specific (ETS) (AID 2282941)
# condition.set: HepG2 ETS cis-reporter transcription, actives raise or lower the signal
Calls of active or inactive are those of the source. The calls were made as follows: active = hit-call score of the fitted dose curve at least 0.9, where 1 is the maximum; inactive = score below 0.9.
Answer with one of the outcomes active, inactive

Before answering, review these 3 worked examples.
> print(dat)
                           compound  class.assignment
1               CCCCCCCCCCCCCC(=O)O          inactive
2         Nc1cc([N+](=O)[O-])ccc1Cl          inactive
3  CC1(C)[C@H]2CC[C@]1(C)[C@H](O)C2          inactive

Lab note: next compound to report on.
Which result was noted for this compound in the test: COCCOCCOCCOCCOCCO inactive

====

# target.of.assay: Cellular tumor antigen p53 (Homo sapiens)
# protocol.notes: ATG_p53_CIS: Attagene CIS-FACTORIAL HepG2 Assay for human p53 Transcription Factor (AID 2282994)
# condition.set: HepG2 p53 cis-element reporter, Attagene mRNA; actives raise or lower the signal
Active and inactive are the calls of the source. Rule for the calls: active = hit-call score of the fitted dose curve at least 0.9, where 1 is the maximum; inactive = score below 0.9.
Your answer must be one of the following: active, inactive

See these solved cases before continuing.
> print(dat)
                                   molecule  class.assignment
1  C=C(C)C(=O)O[C@H]1C[C@@H]2CC[C@@]1(C)C2(C)C            active
2                 OCC(CO)(CO)COCC(CO)(CO)CO          inactive
3  C[C@H]1C[C@H]2[C@@H]3CCC4=CC(=O)C=C[C@]4(C)[C@@]3(F)[C@@H](O)C[C@]2(C)[C@@]1(O)C(=O)COP(=O)(O)O          inactive

# outcome recorded in this test, key = CC(C)C1CCC(O)CC1 (centres undefined) inactive

Per the assay record, what outcome was assigned to CCCCN ? inactive

====

# protocol.notes: ATG_RORE_CIS: Attagene CIS-FACTORIAL HepG2 Assay for human RAR-related Orphan Receptor Element (RORE) (AID 2282959)
# condition.set: HepG2 Attagene cis-factorial RORE reporter, mRNA; actives raise or lower the signal
Activity calls are given as the source filed them. The calls were made as follows: active = hit-call score of the fitted dose curve at least 0.9, where 1 is the maximum; inactive = score below 0.9.
Parameter call: string, one of active, inactive

> print(dat)
                          compound  class.assignment
1   O=C[C@@H](O)[C@H](O)[C@H](O)CO          inactive
2  CC[Si](OC(C)=O)(OC(C)=O)OC(C)=O          inactive

For Cc1ccc2sc3cccc(C)c3c2c1 , which call appears in the assay record? inactive

====

# Read-out: Monocyte Chemoattractant Protein-1 (MCP1), CCL2 (gene 6347)
# protocol.notes: BSK_4H_MCP1: BioMAP Diversity Plus: 4H Assay for Monocyte Chemoattractant Protein-1 (MCP1) Biomarker Activity (AID 2283018)
# condition.set: primary human endothelial cells (HUVEC); actives raise or lower the signal
The source made the active and inactive calls. The calls were made as follows: active = hit-call score of the fitted dose curve at least 0.9, where 1 is the maximum; inactive = score below 0.9.
Answer with one of the outcomes given here: true for active, false for inactive

Per the assay record, what outcome was assigned to CCn1c2ccccc2c2cc(N)ccc21 ? true

====

# Read-out: Monocyte Chemoattractant Protein-1 (MCP1), CCL2 (gene 6347)
# protocol.notes: BSK_CASM3C_MCP1: BioMAP Diversity Plus: CASM3C Assay for Monocyte Chemoattractant Protein-1 (MCP1) Biomarker Activity (AID 2283046);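 also: MCP-1 level quantified by ELISA 24 h after dosing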
# condition.set: primary human coronary artery smooth muscle cells; actives raise or lower the signal
The source made the active and inactive calls. Rule for the calls: active = hit-call score of the fitted dose curve at least 0.9, where 1 is the maximum; inactive = score below 0.9.
Would you mind answering with one of these outcomes? 1 (yes) for active, 0 (no) for inactive

> print(dat)
                                   molecule  class.assignment
1  CCCCCCCCCCCCCCCCCC(=O)OCC(CC)CCCC (stereo not drawn)            0 (no)
2       c1ccc2sc(SN(C3CCCCC3)C3CCCCC3)nc2c1            0 (no)
3     CC1CCC(C(C)CS)CC1S (stereo not drawn)           1 (yes)

Name the outcome recorded for CN(CCOc1ccc(CC2SC(=O)NC2=O)cc1)c1ccccn1 (stereo not drawn) in the assay. 0 (no)

Give the logged outcome of this assay for the following molecule: Cc1cc(C2(c3cc(C)c(O)cc3C)OS(=O)(=O)c3ccccc32)c(C)cc1O 0 (no)

Please state the recorded outcome for this molecule: CC(=O)/C=C/C1=C(C)CCCC1(C)C 0 (no)

Tell me the assay call for CCc1c(C)cc(N)c(CC)c1N please. 0 (no)

====

# target.of.assay: Glucocorticoid receptor (Homo sapiens)
# protocol.notes: ATG_GR_TRANS: Attagene TRANS-FACTORIAL HepG2 Assay for human Glucocorticoid Receptor (GR) (AID 2282978);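 also: activators score as hits since higher reporter transcript over DMSO is fitted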
# condition.set: HepG2 Attagene TRANS GR reporter, mRNA transcription
Inconclusive results are not listed. Active and inactive are the calls of the source. How the source made its calls: active means hit-call score of the fitted dose curve at least 0.9, where 1 is the maximum; inconclusive means response in the unintended direction; inactive means score below 0.9.
The categories you may choose from are T for active, F for inactive

> print(dat)
                               smiles.input  class.assignment
1                              CC(=O)C(C)=O                 F
2  CC(C)C[C@H]1C(=O)N2CCC[C@H]2[C@]2(O)O[C@](NC(=O)[C@@H]3C=C4c5cccc6[nH]c(Br)c(c56)C[C@H]4N(C)C3)(C(C)C)C(=O)N12                 F
3                         O=C(O)CCSCCC(=O)O                 F

Short answer needed: outcome of this test for Cc1ccc(C(=O)c2cc(O)c(O)c([N+](=O)[O-])c2)cc1 ? T

Status in this test for CO[Si](C)(OC)c1ccccc1 ? F

For O=C(O)C[C@H](O)C[C@H](O)/C=C/c1c(C2CC2)nc2ccccc2c1-c1ccc(F)cc1 , which call appears in the assay record? F

====

# target.of.assay: Estrogen receptor (Homo sapiens) (UniProt P03372)
# Sequence (P03372 whole entry, looked up): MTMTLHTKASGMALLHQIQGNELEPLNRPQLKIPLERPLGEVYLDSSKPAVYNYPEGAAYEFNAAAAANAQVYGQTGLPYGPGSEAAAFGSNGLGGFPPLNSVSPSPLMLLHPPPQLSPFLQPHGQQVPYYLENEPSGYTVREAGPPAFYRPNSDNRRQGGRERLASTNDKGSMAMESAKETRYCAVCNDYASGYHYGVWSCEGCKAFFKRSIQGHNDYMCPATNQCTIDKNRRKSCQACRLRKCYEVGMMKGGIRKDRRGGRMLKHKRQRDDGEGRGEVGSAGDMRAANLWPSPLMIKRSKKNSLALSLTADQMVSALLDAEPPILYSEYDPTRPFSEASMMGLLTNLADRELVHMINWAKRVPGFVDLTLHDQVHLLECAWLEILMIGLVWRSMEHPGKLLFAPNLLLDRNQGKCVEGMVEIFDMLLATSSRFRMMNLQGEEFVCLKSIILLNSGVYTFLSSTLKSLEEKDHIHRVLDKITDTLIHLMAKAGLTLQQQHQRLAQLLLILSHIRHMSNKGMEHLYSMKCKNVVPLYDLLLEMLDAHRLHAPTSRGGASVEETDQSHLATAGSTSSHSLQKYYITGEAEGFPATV
# protocol.notes: CCTE_Deisenroth_AIME_384WELL_LUC_Inactive: CCTE's 384-well Estrogen Receptor Transactivation Assay without AIME metabolic competence (ERTA luciferase; metabolism negative), Deisenroth Lab (AID 2284038);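 also: VM7Luc4E2 breast cells given medium preincubated 2 h with S9-free microspheres; hits raise estrogen receptor luciferase signal so potencies reflect agonists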
Results filed as inconclusive are left out. The source made the active and inactive calls. How the source made its calls: active means hit-call score of the fitted dose curve at least 0.9, where 1 is the maximum; inconclusive means response in the unintended direction; inactive means score below 0.9.
quantity.measured: AC50

> print(dat)
       smiles.input            result
1         CN(C)CCCN          inactive
2     OCCOCCOCCOCCO  1.71 nM (active)
3  CC(=O)OCCOC(C)=O          inactive
4      NCCCN1CCOCC1          inactive

====

# protocol.notes: ATG_NFI_CIS: Attagene CIS-FACTORIAL HepG2 Assay for human Nuclear Factor I (NFI) (AID 2282989)
# condition.set: HepG2 cis-regulatory reporter, NFI response element transcription; actives raise or lower the signal
Calls of active or inactive are those of the source. The calls were made as follows: active = hit-call score of the fitted dose curve at least 0.9, where 1 is the maximum; inactive = score below 0.9.
quantity.measured: outcome

> print(dat)
                                   molecule    result
1                               C=CC(C)(C)O  inactive
2  CC(CC(C)(C)C)CC(C)(C)CC(C)(C)C (centres undefined)  inactive
3                                    ClCCCl  inactive
4                          CCCCCC=CCC(=O)OC  inactive

For each of the molecules below, note its outcome.
1. CC(C)(COC(=O)c1ccccc1)COC(=O)c1ccccc1
2. O=C(O)Cc1cccc2ccccc12
3. CCC/C=C/C=O

1. inactive
2. inactive
3. inactive

Need outcome for each of these molecules.
1. C=C[Si](OCC)(OCC)OCC
2. O=[N+]([O-])c1ccc(C=Cc2ccc([N+](=O)[O-])cc2S(=O)(=O)O)c(S(=O)(=O)O)c1
3. Nc1ccc(F)c([N+](=O)[O-])c1

1: inactive; 2: inactive; 3: inactive

====

# protocol.notes: ATG_NRF2_ARE_CIS: Attagene CIS-FACTORIAL HepG2 Assay for human Nuclear Factor Erythroid 2 Related Factor 2 (NFR2) response to Antioxidant Response Elements (ARE) (AID 2282992)
# condition.set: HepG2 Attagene ARE/NRF2 reporter, transcription factor activity; actives raise or lower the signal
Active and inactive are the calls of the source. Rule for the calls: active = hit-call score of the fitted dose curve at least 0.9, where 1 is the maximum; inactive = score below 0.9.
Output constraint: value belongs to true for active, false for inactive

> print(dat)
                                   molecule  class.assignment
1                    CCCCC[Si](OCC)(OCC)OCC             false
2           O=P(c1ccccc1)(c1ccccc1)c1ccccc1             false
3                               CCCCCCCCC=O             false
4  C=C(C)C(=O)O[C@H]1C[C@@H]2CC[C@@]1(C)C2(C)C              true
5            O=C[C@@H](O)[C@H](O)[C@H](O)CO             false
6                             Cc1ccc(C=O)s1             false
7                          S=C(S)NCCNC(=S)S             false
8              Nc1nc2ccc([N+](=O)[O-])cc2s1              true

Give the logged outcome of this assay for the following molecule: N#Cc1ccccc1 false

Look up the recorded call for CC(=O)OCCC(C)CC(C)(C)C (stereo not given) in this test. false

I would be grateful if you could indicate the recorded call for O=C(Cl)c1cccc(C(=O)Cl)c1 . false

Hello, I am checking results. What call was entered for CC1COc2ccccc2N1C(=O)C(Cl)Cl (stereo not given) ? true

Hello, I am checking results. What call was entered for CCCCCCCCCCCCCCCC(=O)OC[C@H](O)[C@H]1OC(=O)C(O)=C1O ? true

Field: outcome | Entry: C=C[C@@H](C)CCC=C(C)C false

Fill in: this test's call for CCCCNC(=O)NS(=O)(=O)c1ccc(N)cc1 is ___ false

Assay outcome for CN(C)C(=N)N=C(N)N : what was it? false

Could you kindly confirm the outcome this assay logged for COc1cccc(OC)c1 ? false

The origin of these recorded values is PubChem BioAssay (EPA / NIEHS).
